The origin of these recorded values is paper PMC4604100.

molecular target: Melanocortin receptor 4 (Homo sapiens), P32245; experiment: competition; conditions: modification not given
Sequence (P32245 whole entry): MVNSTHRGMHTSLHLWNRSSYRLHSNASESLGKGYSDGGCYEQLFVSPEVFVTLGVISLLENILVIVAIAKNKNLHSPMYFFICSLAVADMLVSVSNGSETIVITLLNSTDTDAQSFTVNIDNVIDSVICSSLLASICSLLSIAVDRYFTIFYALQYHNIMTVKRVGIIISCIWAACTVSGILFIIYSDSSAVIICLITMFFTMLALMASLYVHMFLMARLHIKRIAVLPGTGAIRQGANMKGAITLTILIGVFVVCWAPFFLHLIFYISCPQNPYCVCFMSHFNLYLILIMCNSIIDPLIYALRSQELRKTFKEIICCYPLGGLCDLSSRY
Property: Ki
In your response, put the unit directly after the numeric value.

Query: Ki; subject: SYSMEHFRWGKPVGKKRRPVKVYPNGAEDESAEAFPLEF [ACTH, P01189]
1.2 nM
